# Tested on: Parabacteroides merdae
# ASSAY_PROCEDURE: growth AUC relative to DMSO control (median of replicates) (fraction); higher = more growth (less inhibition), active = hit call of the paper
# CONDITION_SET: 20 µM; 24 h
So I've got a bunch of molecules here, and I need their growth AUC values.

Use the examples below as a reference point.
OC(c1ccc(Cl)cc1)(c1ccc(Cl)cc1)C(Cl)(Cl)Cl    0.777 (active)
O=C1CCc2cccc3c2N1CC3    0.971 (inactive)
CC(C)N(C(=O)CCl)c1ccccc1    0.982 (inactive)
CC(C)NC(=O)N1CC(=O)N(c2cc(Cl)cc(Cl)c2)C1=O    1 (inactive)
CC1(C)C(/C=C(\Cl)C(F)(F)F)C1C(=O)OC(C#N)c1cccc(Oc2ccccc2)c1 (configuration not stated)    1.03 (inactive)

Batch lookup, growth AUC per entry.
1. CC[C@H]1CCCC(O[C@H]2CC[C@H](N(C)C)[C@@H](C)O2)[C@@H](C)C(=O)C2=C[C@@H]3[C@@H](C=C(C)[C@@H]4C[C@@H](O[C@@H]5O[C@@H](C)[C@H](OC)[C@@H](OC)[C@H]5OC)C[C@@H]34)[C@@H]2CC(=O)O1.CC[C@H]1CCCC(O[C@H]2CC[C@H](N(C)C)[C@@H](C)O2)[C@@H](C)C(=O)C2=C[C@@H]3[C@@H](C=C[C@@H]4C[C@@H](O[C@@H]5O[C@@H](C)[C@H](OC)[C@@H](OC)[C@H]5OC)C[C@@H]34)[C@@H]2CC(=O)O1 (some centres not stated)
2. CCOC(=O)C(Cl)Cc1cc(-n2nc(C)n(C(F)F)c2=O)c(F)cc1Cl (configuration not stated)

0.925 (inactive)
0.925 (inactive)

* * *

Exercise: state measured growth AUC for each of the molecules provided.
# Test system: Coprococcus comes
# ASSAY_PROCEDURE: growth AUC relative to DMSO control (median of replicates) (fraction); higher = more growth (less inhibition), active = hit call of the paper
# CONDITION_SET: 20 µM; 24 h

Some solved entries appear below for comparison.
O=C1C2CC=CCC2C(=O)N1SC(Cl)(Cl)Cl (stereo not drawn)    1.03 (inactive)
CN(C)C(=O)C(c1ccccc1)c1ccccc1    0.974 (inactive)
COC(=O)c1ccccc1S(=O)(=O)NC(=O)N(C)c1nc(C)nc(OC)n1    1.01 (inactive)
CON(C)C(=O)Nc1ccc(Cl)c(Cl)c1    1 (inactive)
NC(=S)c1c(Cl)cccc1Cl    1.01 (inactive)

Give measured growth AUC for every item shown.
1. CC(=O)CC(c1ccco1)c1c(O)c2ccccc2oc1=O (stereo not drawn)
2. CNC1=C(c2cccc(C(F)(F)F)c2)C(=O)C(c2ccccc2)O1 (stereo not drawn)
3. COCC(=O)N(c1c(C)cccc1C)[C@@H](C)C(=O)OC
4. Nc1ccncc1
5. COCc1cnc(C2=NC(C)(C(C)C)C(=O)N2)c(C(=O)O)c1 (stereo not drawn)

1. 1.01 (inactive)
2. 1.06 (inactive)
3. 1.04 (inactive)
4. 0.95 (inactive)
5. 0.971 (inactive)

// for each molecule below, give its growth AUC
1. O=[N+]([O-])c1ccc2ccc3cccc4ccc1c2c34
2. N#Cc1sc2c(=O)c3ccccc3c(=O)c=2sc1C#N
3. CCCCOC(=O)c1ccccc1C(=O)OCCCC
4. CC1(C)C(/C=C(\Cl)c2ccc(Cl)cc2)C1C(=O)OC(C#N)c1ccc(F)c(Oc2ccccc2)c1 (stereo not drawn)
5. CCOP(=O)(OCC)O/C(=C/Br)c1ccc(Cl)cc1Cl
6. O.[Br-].[Br-].c1cc[n+]2c(c1)-c1cccc[n+]1CC2

["0.972 (inactive)", "0.921 (inactive)", "1 (inactive)", "0.968 (inactive)", "1.01 (inactive)", "0.988 (inactive)"]

Batch of 3 molecules: report growth AUC for each.
1. O=c1c2cc(F)ccc2nc(-n2cncn2)n1-c1ccc(Cl)cc1Cl
2. CC(C)OC(=O)Nc1cccc(Cl)c1
3. CCS(=O)(=O)Cc1ccccc1OC(=O)NC

0.999 (inactive)
1.02 (inactive)
0.996 (inactive)
